test system: HEY A8 CSCs (HEY A8 SP); experiment: Toxicity / cell viability (CellTiter-Glo) on HEY A8 spheres (CSCs); assay type: cell-based, human; conditions: HEY A8 spheres, 48 h incubation; read-out: IC50 Cancer Stem Cell HeyA8 SP
MEASUREMENT_LABEL: IC50

Lookup: Return reported IC50; argument: O=C(NO[C@H](COCc1ccccc1)C(=O)Nc1ccccc1)c1cc(C(F)(F)F)cc(C(F)(F)F)c1 [sff-2-112]
Found: 1.5 µM

----------
system: SKOV3 CSCs (SKOV3 SP); experiment: Cell viability (CellTiter-Glo) on SKOV3 spheres (CSCs); type: cell-based, human; settings: Homo sapiens, SK-OV-3, 48 h incubation, read-out: IC50 Cancer Stem Cell SKOV3 SP
MEASUREMENT_LABEL: IC50 (nM)
Reply numerically in nM, unit not repeated.

Lookup: Return reported IC50; argument: "CC(C)(C)OC(=O)[C@@H](COCc1ccccc1)ONC(=O)c1cc(C(F)(F)F)cc(C(F)(F)F)c1"
Found: 1000

----------
Listing of recorded IC50 by entry.
system: MDCK; experiment: Toxicity against normal cell line MDCK; type: cell-based
Reply numerically in µM, unit not repeated.

{"COMPOUND": "O=C(NO[C@H](COCc1ccccc1)C(=O)Nc1ccccc1)c1cc(C(F)(F)F)cc(C(F)(F)F)c1 [sff-2-112]", "MEASUREMENT_UNIT": "µM", "IC50": 25.1}

Query compound follows.
Lookup: Return reported IC50; argument: CC(C)C[C@@H](ONC(=O)c1cc(C(F)(F)F)cc(C(F)(F)F)c1)C(=O)Nc1ccccc1 [sff-2-124]
Found: 13.2

----------
Listing of recorded pIC50 by entry.
test system: HEY A8 cancer cells; assay: Cell viability (CellTiter-Glo) on adherent HEY A8 cancer cells; format: cell-based, human; conditions: 48 h incubation, read-out: IC50 Cancer Cell HeyA8
pIC50 is defined as minus the log10 of a concentration measured in mol/L.

{"ITEM_SMILES": "CC(C)C[C@@H](ONC(=O)c1cc(C(F)(F)F)cc(C(F)(F)F)c1)C(=O)Nc1ccccc1", "MEAS_VALUE": 4.68}

Lookup: Return reported pIC50; argument: "O=C(NO[C@H](COCc1ccccc1)C(=O)Nc1ccccc1)c1cc(C(F)(F)F)cc(C(F)(F)F)c1"
Found: 4.63

Where these numbers come from: patent US12539284B2
